target: BuChE from human serum (Homo sapiens); construct: 0.01 units BuChE from human serum; from tissue; host or cells: human serum; assay: BuChE inhibition (Ellman colorimetric method); format: biochemical
Sequence (P06276 29-602): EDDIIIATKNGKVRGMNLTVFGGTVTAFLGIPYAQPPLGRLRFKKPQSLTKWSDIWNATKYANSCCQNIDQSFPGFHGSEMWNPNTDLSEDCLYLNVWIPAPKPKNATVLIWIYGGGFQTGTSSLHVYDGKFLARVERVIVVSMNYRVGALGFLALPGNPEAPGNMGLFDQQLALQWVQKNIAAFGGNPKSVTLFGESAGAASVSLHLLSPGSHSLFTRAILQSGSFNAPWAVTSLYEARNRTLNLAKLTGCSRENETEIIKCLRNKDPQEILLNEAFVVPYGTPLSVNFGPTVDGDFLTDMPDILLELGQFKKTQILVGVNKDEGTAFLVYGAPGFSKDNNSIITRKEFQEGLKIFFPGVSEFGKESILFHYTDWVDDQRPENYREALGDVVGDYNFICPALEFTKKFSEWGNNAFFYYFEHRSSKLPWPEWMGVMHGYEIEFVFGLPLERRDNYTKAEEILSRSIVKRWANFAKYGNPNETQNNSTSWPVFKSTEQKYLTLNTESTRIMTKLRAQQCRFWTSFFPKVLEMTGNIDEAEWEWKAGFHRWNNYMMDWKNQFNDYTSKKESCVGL
Please go through the items and note down their inhibition at 30 µM.
// return the numeric value with its unit appended

What value of measured inhibition at 30 µM is listed for COC1=C(Br)[C@H](O)[C@@]2(C=C1Br)CC(C(=O)NCCCCNC(=O)C1=NO[C@]3(C=C(Br)C(OC)=C(Br)[C@@H]3O)C1)=NO2 [Compound 3, Aerothionin] ? 13%

Field entry: COC1=C(Br)[C@H](O)[C@@]2(C=C1Br)CC(C(=O)NCCCCCNC(=O)C1=NO[C@]3(C=C(Br)C(OC)=C(Br)[C@@H]3O)C1)=NO2 [Compound 4, Homoaerothionin] 10%

Field entry: COC1=C(Br)[C@@H](O)[C@]2(C=C1Br)CC(C(=O)NCCc1cc(Br)c(OCCCNC(=O)C3=NO[C@]4(C=C(Br)C(OC)=C(Br)[C@@H]4O)C3)c(Br)c1)=NO2 [Compound 5, 11,19-dideoxyfistularin] 57%

Field entry: COC1=C(Br)[C@@H]2OC(=O)C[C@]2(O)C=C1Br [Compound 1, Aeroplysinin-2] 0%

Field entry: COC1=C(Br)[C@H](O)[C@](O)(CC#N)C=C1Br [Compound 2, Aeroplysinin-1] 0%
